Target: human Tissue Factor (TF) (human, UniProt P13726 33-295)
Experiment: cell-based or functional assay
Hi there, I'd appreciate the recorded % IL8 at 2.56 nM antibody for every entry that follows.
Write the quantity with the unit trailing the number.

25G1 (antibody, human IgG1, V domains shown) VH: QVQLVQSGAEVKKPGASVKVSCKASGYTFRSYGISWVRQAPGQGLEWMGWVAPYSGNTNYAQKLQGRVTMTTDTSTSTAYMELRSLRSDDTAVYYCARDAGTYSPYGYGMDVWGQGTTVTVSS VL: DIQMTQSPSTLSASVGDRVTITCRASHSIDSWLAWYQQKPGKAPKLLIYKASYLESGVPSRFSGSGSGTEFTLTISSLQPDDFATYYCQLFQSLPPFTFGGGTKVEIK ... 46%

// next item, % IL8 at 2.56 nM antibody requested
Input: Any idea what its % IL8 at 2.56 nM antibody is? The binder is 39A (antibody, human IgG1, V domains shown, Human IgG1; also called antibody designated 39A) VH: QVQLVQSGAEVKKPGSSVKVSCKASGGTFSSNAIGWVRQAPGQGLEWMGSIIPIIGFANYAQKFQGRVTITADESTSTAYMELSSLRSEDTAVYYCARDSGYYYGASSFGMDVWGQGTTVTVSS VL: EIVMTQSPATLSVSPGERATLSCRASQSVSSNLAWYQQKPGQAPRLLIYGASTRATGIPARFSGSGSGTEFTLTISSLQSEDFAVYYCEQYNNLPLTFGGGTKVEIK
Output: 52%
